Tested on: T1, LILRB3 (human, UniProt O75022)
T1 construct: expressed on the cell surface; also called human LILRB3; ILT5
T1 sequence (O75022 24-631 limits assumed): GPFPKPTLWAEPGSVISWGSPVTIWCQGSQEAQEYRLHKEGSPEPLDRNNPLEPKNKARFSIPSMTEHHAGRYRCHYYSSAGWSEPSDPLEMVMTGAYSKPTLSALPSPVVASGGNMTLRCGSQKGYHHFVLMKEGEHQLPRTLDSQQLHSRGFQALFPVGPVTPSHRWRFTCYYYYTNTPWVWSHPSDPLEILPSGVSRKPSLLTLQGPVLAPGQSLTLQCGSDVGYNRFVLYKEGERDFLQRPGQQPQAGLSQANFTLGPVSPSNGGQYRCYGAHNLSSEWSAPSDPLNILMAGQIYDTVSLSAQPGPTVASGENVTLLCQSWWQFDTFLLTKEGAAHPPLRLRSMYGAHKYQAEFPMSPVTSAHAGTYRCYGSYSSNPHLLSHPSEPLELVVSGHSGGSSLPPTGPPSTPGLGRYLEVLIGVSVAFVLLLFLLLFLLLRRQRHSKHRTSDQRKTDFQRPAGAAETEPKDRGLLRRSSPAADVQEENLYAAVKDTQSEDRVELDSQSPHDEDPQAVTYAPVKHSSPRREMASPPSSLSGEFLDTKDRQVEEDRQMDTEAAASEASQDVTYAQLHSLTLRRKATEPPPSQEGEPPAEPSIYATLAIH
Assay explanation: FACS on cells expressing human LILRB3, labeled anti-mouse Fc secondary antibody
Readout label: binding result

>>> obs_value("anti-ILT3 antibody 48A6 (antibody, V domains shown, Mouse monoclonal antibody from hybridoma) VH: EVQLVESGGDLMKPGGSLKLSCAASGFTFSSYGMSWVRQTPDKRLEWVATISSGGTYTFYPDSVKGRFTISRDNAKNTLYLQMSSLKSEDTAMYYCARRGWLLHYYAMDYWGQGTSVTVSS VL: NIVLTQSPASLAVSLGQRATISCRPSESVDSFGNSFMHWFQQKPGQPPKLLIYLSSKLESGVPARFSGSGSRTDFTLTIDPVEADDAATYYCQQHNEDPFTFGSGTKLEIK")
"binds"
